# TARGET OR SYSTEM: human adenosine A2b receptor (Homo sapiens)
# Sequence (P29275 1-332): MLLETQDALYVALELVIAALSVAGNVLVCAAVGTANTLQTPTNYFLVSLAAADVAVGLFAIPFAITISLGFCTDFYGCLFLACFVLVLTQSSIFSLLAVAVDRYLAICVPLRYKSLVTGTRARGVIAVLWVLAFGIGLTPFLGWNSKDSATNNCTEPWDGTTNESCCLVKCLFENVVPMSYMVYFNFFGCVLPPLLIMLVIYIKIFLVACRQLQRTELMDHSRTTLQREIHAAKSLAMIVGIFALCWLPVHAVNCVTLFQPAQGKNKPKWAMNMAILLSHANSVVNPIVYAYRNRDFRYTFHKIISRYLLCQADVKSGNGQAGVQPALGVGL
# MEASUREMENT NOTES: Cellular in vitro reporter gene test for A2b receptor activity (antagonism of NECA)
# MEASUREMENT CONTEXT: recombinant CHO-K1 cells, CRE-luciferase reporter, co-incubation with EC50 concentration of NECA, 3 hours
Binarize IC50 at 20 nM; below is 1.0, at or above is 0.0.

Hello, is IC50 of the following compound strictly smaller than 20 nM? "COCCn1c(=O)n(C2CC(C)(C)C2)c(=O)c2c(C)c(CN3CCNC(=O)C3=O)sc21" 0.0

Same question for Cc1c(CN2CCNC2=O)sc2c1c(=O)n(C1CC1C)c(=O)n2CCCC(F)(F)F (single isomer, unassigned) [Example 244] please. 1.0

Same question for Cc1c(CN2CCNC2=O)sc2c1c(=O)n([C@H]1C[C@@H]1C)c(=O)n2CC1CCO1 (single isomer, unassigned) [Example 284] please. 1.0

Same question for "CCCCn1c(=O)n([C@H]2C[C@@H]2C)c(=O)c2c(C)c(CN3CCNC3=O)sc21" please. 1.0

Same question for "COCCn1c(=O)n(C2CC2)c(=O)c2c(C)c(Cn3nc[nH]c3=O)sc21" please. 0.0

Same question for "Cc1c(Cn2nc[nH]c2=O)sc2c1c(=O)n(C1(C)CC1)c(=O)n2CC#N" please. 0.0

Same question for "Cc1c(CN2CCNC2=NC#N)sc2c1c(=O)n(C1CC1)c(=O)n2CCCF" please. 1.0

Same question for "Cc1c(CN2CCNC2=NC#N)sc2c1c(=O)n(C1(C)CCC1)c(=O)n2CCC(F)(F)F" please. 0.0

Same question for "COCCn1c(=O)n(C2(C(F)(F)F)CC2)c(=O)c2c(C)c(CN3CCNC3=NC(=O)OC)sc21" please. 0.0

Same question for CCC1CC1n1c(=O)c2c(C)c(CN3CCNC3=O)sc2n(CCOC)c1=O (single isomer, unassigned) [Example 302] please. 1.0

Same question for "Cc1c(CN2CCNC2=NC#N)sc2c1c(=O)n(C1CCCC1)c(=O)n2CCC(F)(F)F" please. 1.0

Same question for Cc1c(Cn2nc[nH]c2=O)sc2c1c(=O)n(C1CC1)c(=O)n2CC1CCCC1(F)F (single isomer, unassigned) [Example 207] please. 0.0

Same question for "Cc1c(CN2CCNC2=O)sc2c1c(=O)n(C1CC1)c(=O)n2CCCF" please. 1.0

Same question for "Cc1c(Cn2nc[nH]c2=O)sc2c1c(=O)n([C@H]1C[C@@H]1C)c(=O)n2CC(F)(F)F" please. 1.0

Same question for "Cc1c(CN2CCNC2=O)sc2c1c(=O)n(C1CC(F)(F)C1)c(=O)n2CCC(F)(F)F" please. 1.0

Same question for "Cc1c(CN2CCNC2=O)sc2c1c(=O)n(C1(C)CC1)c(=O)n2C" please. 1.0

Same question for COCCn1c(=O)n(C2CC2C)c(=O)c2c(C)c(CN3CCNC3=O)sc21 (racemic) [Example 94] please. 1.0

Same question for COCCn1c(=O)n(C2CC2C(F)(F)F)c(=O)c2c(C)c(CN3CCNC3=O)sc21 (single isomer, unassigned) [Example 295] please. 0.0

Same question for "COCCn1c(=O)n(C2CCC2)c(=O)c2c(C)c(CN3CCNC3=O)sc21" please. 1.0

Same question for "Cc1c(CN2CCNC2=NC#N)sc2c1c(=O)n(C1(C)CC1)c(=O)n2CCC(F)(F)F" please. 1.0

Same question for Cc1c(Cn2nc[nH]c2=O)sc2c1c(=O)n(C1(C)CC1)c(=O)n2CC1CC1(F)F (single isomer, unassigned) [Example 68] please. 0.0

Same question for "CCn1c(=O)n([C@H]2C[C@@H]2C)c(=O)c2c(C)c(Cn3nc[nH]c3=O)sc21" please. 0.0
